The origin of these recorded values is ChEMBL document CHEMBL5518181.

protocolNotes: Hemolytic activity in human red blood cells at 400 ug/ml incubated for 45 mins by spectrophotometric analysis relative to control
Type: toxicity, cell-based, Erythrocyte
experimentalConditions: red blood cells (erythrocytes), at 400 µg/mL, read-out: Activity
propertyName: hemolysis at 0.75 h, 400 ug/ml

Challenge: Suppose we examine the compound CC[C@H](C)[C@@H](NC(=O)[C@@H](NC(=O)[C@H](CCC(=O)O)NC(=O)[C@H](Cc1ccccc1)NC(=O)[C@@H](C)NC(=O)[C@H](CCN)NC(=O)[C@H](CO)NC(=O)[C@@H](Cc1c[nH]c2ccccc12)NC(=O)[C@@H](CO)NC(=O)CNC(=O)[C@@H](CCN)NC(=O)[C@H](NC(=O)[C@H](C)N)C(C)C)C(C)C)C(=O)N[C@@H](C)C(=O)O ; what hemolysis at 0.75 h, 400 ug/ml value has been reported?
Response given: 4.5%

Challenge: Suppose we examine the compound CC[C@H](C)[C@@H](NC(=O)[C@H](C)NC(=O)[C@H](CCC(=O)O)NC(=O)[C@H](Cc1ccccc1)NC(=O)[C@@H](CCN)NC(=O)[C@H](CCN)NC(=O)[C@H](CO)NC(=O)[C@@H](Cc1c[nH]c2ccccc12)NC(=O)[C@@H](CO)NC(=O)CNC(=O)[C@@H](CCN)NC(=O)[C@H](N)C(C)C)C(=O)N[C@@H](C)C(=O)O ; what hemolysis at 0.75 h, 400 ug/ml value has been reported?
Response given: 0.8%

Challenge: Suppose we examine the compound CC[C@H](C)[C@@H](NC(=O)[C@@H](NC(=O)[C@H](CCC(=O)O)NC(=O)[C@H](Cc1ccccc1)NC(=O)[C@@H](CCN)NC(=O)[C@H](CCN)NC(=O)[C@H](CO)NC(=O)[C@@H](Cc1c[nH]c2ccccc12)NC(=O)[C@@H](CO)NC(=O)CNC(=O)[C@@H](CCN)NC(=O)[C@H](NC(=O)[C@H](C)N)C(C)C)C(C)(C)C)C(=O)N[C@@H](C)C(=O)O ; what hemolysis at 0.75 h, 400 ug/ml value has been reported?
Response given: 82.7%

Challenge: Suppose we examine the compound CC[C@H](C)[C@@H](NC(=O)[C@@H](NC(=O)[C@H](CCC(=O)O)NC(=O)[C@H](Cc1ccccc1)NC(=O)[C@@H](CCN)NC(=O)[C@H](CCN)NC(=O)[C@H](CO)NC(=O)[C@@H](Cc1c[nH]c2ccccc12)NC(=O)[C@@H](CO)NC(=O)CNC(=O)[C@@H](CN)NC(=O)[C@H](N)C(C)C)C(C)C)C(=O)N[C@@H](C)C(=O)O ; what hemolysis at 0.75 h, 400 ug/ml value has been reported?
Response given: 6.3%

Challenge: Suppose we examine the compound CC[C@H](C)[C@@H](NC(=O)[C@@H](NC(=O)[C@H](CCC(=O)O)NC(=O)[C@H](Cc1ccccc1)NC(=O)[C@@H](CCN)NC(=O)[C@H](CCN)NC(=O)[C@H](CO)NC(=O)[C@@H](Cc1c[nH]c2ccccc12)NC(=O)[C@@H](CO)NC(=O)CNC(=O)[C@@H](CCN)NC(=O)[C@H](N)C(C)C)C(C)C)C(=O)O ; what hemolysis at 0.75 h, 400 ug/ml value has been reported?
Response given: 1%

Challenge: Suppose we examine the compound CC[C@H](C)[C@@H](NC(=O)[C@@H](NC(=O)[C@H](CCC(=O)O)NC(=O)[C@H](Cc1ccccc1)NC(=O)[C@@H](CN)NC(=O)[C@H](CCN)NC(=O)[C@H](CO)NC(=O)[C@@H](Cc1c[nH]c2ccccc12)NC(=O)[C@@H](CO)NC(=O)CNC(=O)[C@@H](CCN)NC(=O)[C@H](N)C(C)C)C(C)C)C(=O)N[C@@H](C)C(=O)O ; what hemolysis at 0.75 h, 400 ug/ml value has been reported?
Response given: 1.6%

Challenge: Suppose we examine the compound CC[C@H](C)[C@@H](NC(=O)[C@@H](NC(=O)[C@H](CCC(=O)O)NC(=O)[C@H](Cc1ccccc1)NC(=O)[C@@H](CCN)NC(=O)[C@H](CCN)NC(=O)[C@H](CO)NC(=O)[C@@H](Cc1c[nH]c2ccccc12)NC(=O)[C@@H](CO)NC(=O)CNC(=O)[C@@H](CCN)NC(=O)[C@H](NC(=O)[C@H](C)N)C(C)C)C(C)C)C(=O)N[C@@H](C)C(=O)O ; what hemolysis at 0.75 h, 400 ug/ml value has been reported?
Response given: 9.1%

Challenge: Suppose we examine the compound CC[C@H](C)[C@@H](NC(=O)[C@@H](NC(=O)[C@H](CCC(=O)O)NC(=O)[C@H](Cc1c[nH]c2ccccc12)NC(=O)[C@@H](CCN)NC(=O)[C@H](CCN)NC(=O)[C@H](CO)NC(=O)[C@@H](Cc1c[nH]c2ccccc12)NC(=O)[C@@H](CO)NC(=O)CNC(=O)[C@@H](CCN)NC(=O)[C@H](NC(=O)[C@H](C)N)C(C)C)C(C)C)C(=O)N[C@@H](C)C(=O)O ; what hemolysis at 0.75 h, 400 ug/ml value has been reported?
Response given: 41.7%

Challenge: Suppose we examine the compound CC[C@@H](C)[C@@H](NC(=O)[C@@H](NC(=O)[C@H](CCC(=O)O)NC(=O)[C@H](Cc1ccccc1)NC(=O)[C@@H](CCN)NC(=O)[C@H](CCN)NC(=O)[C@H](CO)NC(=O)[C@@H](Cc1c[nH]c2ccccc12)NC(=O)[C@@H](CO)NC(=O)CNC(=O)[C@@H](CCN)NC(=O)[C@H](N)C(C)C)C(C)C)C(=O)N[C@@H](C)C(=O)O ; what hemolysis at 0.75 h, 400 ug/ml value has been reported?
Response given: 5.5%

Challenge: Suppose we examine the compound CC[C@H](C)[C@@H](NC(=O)[C@@H](NC(=O)[C@H](CCC(=O)O)NC(=O)[C@H](Cc1ccccc1)NC(=O)[C@@H](CCN)NC(=O)[C@H](CCN)NC(=O)[C@H](CO)NC(=O)[C@@H](Cc1c[nH]c2ccccc12)NC(=O)[C@@H](CO)NC(=O)CNC(=O)[C@@H](CCN)NC(=O)[C@H](NC(=O)CCN)C(C)C)C(C)C)C(=O)N[C@@H](C)C(=O)O ; what hemolysis at 0.75 h, 400 ug/ml value has been reported?
Response given: 0%

Challenge: Suppose we examine the compound CC[C@H](C)[C@@H](NC(=O)[C@@H](NC(=O)[C@H](CCC(=O)O)NC(=O)[C@H](Cc1ccccc1)NC(=O)[C@@H](CCN)NC(=O)[C@H](CCN)NC(=O)[C@H](CO)NC(=O)[C@@H](Cc1c[nH]c2ccccc12)NC(=O)[C@@H](C)NC(=O)CNC(=O)[C@@H](CCN)NC(=O)[C@H](N)C(C)C)C(C)C)C(=O)N[C@@H](C)C(=O)O ; what hemolysis at 0.75 h, 400 ug/ml value has been reported?
Response given: 0%

Challenge: Suppose we examine the compound CC[C@H](C)[C@@H](NC(=O)[C@@H](NC(=O)[C@H](CCC(=O)O)NC(=O)[C@H](Cc1ccccc1)NC(=O)[C@@H](CCN)NC(=O)[C@H](CCN)NC(=O)[C@H](C)NC(=O)[C@@H](Cc1c[nH]c2ccccc12)NC(=O)[C@@H](CO)NC(=O)CNC(=O)[C@@H](CCN)NC(=O)[C@H](NC(=O)[C@H](C)N)C(C)C)C(C)C)C(=O)N[C@@H](C)C(=O)O ; what hemolysis at 0.75 h, 400 ug/ml value has been reported?
Response given: 0%
